Target: T1, human BCMA on cells (human, UniProt Q02223 1-184)
T1 construct: also called hBCMA; BCMA on NCI-H929, ARP-1, OPM-2, U266B1, MM.1S, RPMI-8226 cells
T1 sequence: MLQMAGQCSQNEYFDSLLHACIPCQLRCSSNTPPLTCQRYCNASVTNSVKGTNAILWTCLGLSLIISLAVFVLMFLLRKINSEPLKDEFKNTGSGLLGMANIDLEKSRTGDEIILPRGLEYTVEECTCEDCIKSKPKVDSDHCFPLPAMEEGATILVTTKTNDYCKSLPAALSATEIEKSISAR
Assay: FACS, NCI-H929 cells
// condition not met strictly below 20000 MFI in Bmax; condition met otherwise

binder="10F4 (antibody, V domains shown, Chicken HybriFree-derived antibody; also called Antibody 37) VH: AVTLDESGGGLQTPGGALSLVCKASGFTFSGYNMGWVRQAPGKGLEYVAGITYGTGSYTAYGAAVKGRATISRDNGQSTLRLQLNNLRAEDTATYYCARGGGLNSYGCSGANIDAWGHGTEVIVSS VL: ALTQPSSVSANLGGTVKITCSGGGNYFGSYYYGWYQQKAPGSAPVTVIYNNNNRPSDIPSRFSGSTSGSTSTLTISGVRAEDEAVYFCGGFDSSTDAIFGAGTTLTVL" answer_label="condition not met"
binder="9H1 (antibody, V domains shown, Chicken HybriFree-derived antibody; also called Antibody 44) VH: AVTLDESGGGLQTPGGALSLVCKGSGFTFSDYGMGWMRQAPGKGLQYVARINSAGSDTNYGSAVKGRATISRDDGQSTVRLQLSSLRAEDTGIYYCTRGGGGASIDGWGHGTEVIVSS VL: ALTQPSSVSANPGETVKITCSGGGSYYGSYYYGWYQQKSPGSAPVTLIYNNNNRPSDIPSRFSGSTSGSTGTLTITGVRAEDEAVYYCGSFDSSTDAIFGAGTTLTVL" answer_label="condition not met"
binder="11D6 (antibody, V domains shown, Chicken HybriFree-derived antibody; also called Antibody 32) VH: AVTLDESGGGLQTPGGTLSLVCKASGFTFSSFNMFWVRQAPGEGLEWVAYIRNDGRSTSYGPAVKGRATISRDNGQSTVRLQLNNLRAEDTGTYFCAKTTCVGSGGCIDTWGHGTEVIVSS VL: ALTQPSSVSANPGETVEITCSGGNSDYGWFQQKSPGSAPVTVIYRNNQRPSDIPSRFSGSGSGSTNTLTITGVQAEDEAIYYCGNVDFTDDVFGAGTTLTVL" answer_label="condition met"
binder="9A8 (antibody, V domains shown, Chicken HybriFree-derived antibody; also called Antibody 30) VH: AVTLDESGGGLQTPGGTLSLVCKASGFTFSSFNMFWVRQAPGKGLEWVAYIRNDGNSASYGPAVKGRATISRDNGQSTVRLQLNNLRAEDTATYYCAKTTCIGSGGCIDTWGHGTEVIVSS VL: ALTQPSSVSANPGETVKITCSGGSSDYGWFQQKSPGSAPVTVIYSNNQRPSGIPSRFSGSKSGSTGTLTITGVQAEDEAIYYCANVDYTDDVFGAGTTLTVL" answer_label="condition met"
binder="9E12 (antibody, V domains shown, Chicken HybriFree-derived antibody; also called Antibody 43) VH: AVTLDESGGGLQTPGGGLSLVCKASGFTFSDYGLGWMRQAPGKGLEYVARINSAGSGTYYGSAVDGRATISRDNGQSTVRLQLNNLRAEDTGTYYCTRGGGGASIDGWGHGTEVIVSS VL: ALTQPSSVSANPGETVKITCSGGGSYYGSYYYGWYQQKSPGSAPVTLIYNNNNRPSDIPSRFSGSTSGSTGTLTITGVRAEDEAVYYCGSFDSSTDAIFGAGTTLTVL" answer_label="condition not met"
